TARGET_SYSTEM: Protein arginine N-methyltransferase 6 (Homo sapiens)
Sequence (Q96LA8 whole entry): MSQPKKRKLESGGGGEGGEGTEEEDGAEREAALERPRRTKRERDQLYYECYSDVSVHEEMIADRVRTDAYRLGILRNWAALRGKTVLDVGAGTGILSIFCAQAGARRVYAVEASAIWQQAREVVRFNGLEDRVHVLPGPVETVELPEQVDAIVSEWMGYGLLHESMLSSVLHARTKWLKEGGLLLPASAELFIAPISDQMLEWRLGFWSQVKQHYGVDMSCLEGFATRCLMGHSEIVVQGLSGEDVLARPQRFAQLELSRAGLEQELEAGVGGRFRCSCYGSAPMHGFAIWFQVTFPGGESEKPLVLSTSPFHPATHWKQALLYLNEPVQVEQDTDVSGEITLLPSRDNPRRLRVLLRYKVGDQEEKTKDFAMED
PROTOCOL_SUMMARY: Inhibition of PRMT6 (unknown origin) using AdoMet by Michaelis-Menten equation analysis
pKi: −log10 of the molar value.
PARAMETER: pKi

- H-GRKKARQRRRPPQ-OH: 4.44

====

TARGET_SYSTEM: UniProt:Q86X55
Sequence (Q86X55 whole entry): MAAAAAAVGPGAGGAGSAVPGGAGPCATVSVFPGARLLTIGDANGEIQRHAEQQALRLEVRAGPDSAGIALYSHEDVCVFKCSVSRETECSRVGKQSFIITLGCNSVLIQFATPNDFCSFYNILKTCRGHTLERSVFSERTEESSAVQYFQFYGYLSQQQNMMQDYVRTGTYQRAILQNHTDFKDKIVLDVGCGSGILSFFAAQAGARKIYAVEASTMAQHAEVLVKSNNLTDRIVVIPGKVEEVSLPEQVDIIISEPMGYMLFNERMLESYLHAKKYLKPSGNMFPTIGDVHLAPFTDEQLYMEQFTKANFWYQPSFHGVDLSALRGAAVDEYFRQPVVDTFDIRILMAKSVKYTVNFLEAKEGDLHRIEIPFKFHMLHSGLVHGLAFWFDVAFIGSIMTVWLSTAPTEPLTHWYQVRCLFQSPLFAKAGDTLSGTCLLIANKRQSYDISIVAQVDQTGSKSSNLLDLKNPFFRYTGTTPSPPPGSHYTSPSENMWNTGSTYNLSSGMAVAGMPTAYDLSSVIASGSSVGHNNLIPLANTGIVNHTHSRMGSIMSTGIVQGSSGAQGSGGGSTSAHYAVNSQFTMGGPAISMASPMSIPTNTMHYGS
PROTOCOL_SUMMARY: Activity at PRMT4 (unknown origin) using [methyl-14C]AdoMet at 0.25 to 200 uM after 60 to 120 mins by tricine gel electrophoresis
Activity calls are given as the source filed them. No cut-off for these calls is given here. Starred links: 1 amine or outer side, 2 acyl side, 3 side chain; linkers in the order of their positions; H or OH if unused. Non-standard residues stand in square brackets, D forms with d. Residues, ends and D or L forms follow the SMILES beside them. X1 = N/C(=N\O)NCCC[C@H](N[*:1])C(=O)[*:2]
PARAMETER: Activity

* N=C(N)NCCC[C@H](NC(=O)CN)C(=O)N[C@@H](CCCCN)C(=O)N[C@@H](CCCCN)C(=O)N[C@@H](CCCNC(=N)N)C(=O)N[C@@H](CCCNC(=N)N)C(=O)N[C@@H](CCC(N)=O)C(=O)N[C@@H](CCCNC(=N)N)C(=O)N[C@@H](CCCNC(=N)N)C(=O)N[C@@H](CCCNC(=N)N)C(=O)N1CCC[C@H]1C(=O)N1CCC[C@H]1C(=O)N[C@@H](CCC(N)=O)C(=O)O | Active
* CC/N=C(\N)NCCC[C@H](NC(=O)[C@H](CCCCN)NC(=O)[C@H](CCCCN)NC(=O)[C@H](CCCNC(=N)N)NC(=O)CN)C(=O)N[C@@H](CCCNC(=N)N)C(=O)N[C@@H](CCC(N)=O)C(=O)N[C@@H](CCCNC(=N)N)C(=O)N[C@@H](CCCNC(=N)N)C(=O)N[C@@H](CCCNC(=N)N)C(=O)N1CCC[C@H]1C(=O)N1CCC[C@H]1C(=O)N[C@@H](CCC(N)=O)C(=O)O | Active
* N=C(N)NCCC[C@H](NC(=O)CN)C(=O)N[C@@H](CCCCN)C(=O)N[C@@H](CCCCN)C(=O)N[C@@H](CCCN/C(N)=N/O)C(=O)N[C@@H](CCCNC(=N)N)C(=O)N[C@@H](CCC(N)=O)C(=O)N[C@@H](CCCNC(=N)N)C(=O)N[C@@H](CCCNC(=N)N)C(=O)N[C@@H](CCCNC(=N)N)C(=O)N1CCC[C@H]1C(=O)N1CCC[C@H]1C(=O)N[C@@H](CCC(N)=O)C(=O)O (H-GRKK[X1]RQRRRPPQ-OH) | Active
